Experiment: Single-dose intravenous pharmacokinetics in dogs
Assay type: in vivo, dog
Details: female; Beagle dog, F, n=3, 1 mg/kg single IV; plasma LC/MS/MS, non-compartmental; mean (SD); read-out: V

smiles.input	unit.label	Vd
CC(=O)N[C@H]1CSSC[C@@H](C(N)=O)NC(=O)[C@H](CC(=O)O)NC(=O)[C@@H]2CCCN2C(=O)CNC(=O)[C@H](CCCCN)NC(=O)[C@H](CC(=O)O)NC(=O)CNC(=O)[C@H](CCCNC(=N)N)NC1=O	L/kg	0.253

---

Assay: Single-dose intravenous pharmacokinetics in rats
Assay type: in vivo, rat
Settings: female; Sprague-Dawley rat, F, n=6, 1 mg/kg single IV; plasma LC/MS/MS, non-compartmental; one time point per animal

smiles.input	C0 [ng/mL]
CC(=O)N[C@H]1CSSC[C@@H](C(N)=O)NC(=O)[C@H](CC(=O)O)NC(=O)[C@@H]2CCCN2C(=O)CNC(=O)[C@H](CCCCN)NC(=O)[C@H](CC(=O)O)NC(=O)CNC(=O)[C@H](CCCNC(=N)N)NC1=O	3980

# credit: paper PMC10053770
